This section presents binders with their documented Fluorescence (background subtracted) values.
- Target or test system: T1, AA111-228 DNA-binding domain of RXR-alpha (human, UniProt P19793 111-228)
- T1 construct: range 111-228; Bought recombinant protein (Abcam); also called RXRa-DBD; RXR-alpha DBD
- T1 sequence (looked up): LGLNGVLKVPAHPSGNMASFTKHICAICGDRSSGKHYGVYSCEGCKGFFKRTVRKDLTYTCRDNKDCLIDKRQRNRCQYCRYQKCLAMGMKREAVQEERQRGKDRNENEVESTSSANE
- Assay protocol: plate binding assay, 800 ng/well SA488-labelled peptide on 1 ug/well adsorbed RXRa-DBD
Ends that are not written are not given here. * marks the point of attachment. Biotin = O=C1N[C@H]2[C@H](CS[C@H]2CCCCC(=O)*)N1
Property name: Fluorescence (background subtracted) (fluorescence counts)

INSERT INTO measurements (binder, unit_symbol, reported_measurement) VALUES
  ('Biotin-RKGFYKRKQCKPSRGRKRGICW (cysteine pairing not given here; also: labelled with Streptavidin-Alexa 488 conjugate (SA488), Synthetic immodulin peptide derived from IGFBP-5; also called immodulin peptide-5) [imm5]', 'fluorescence counts', 6800),
  ('Biotin-HRGFYRKRQCRSSQGQRRGPCW (cysteine pairing not given here; also: labelled with Streptavidin-Alexa 488 conjugate (SA488), Synthetic immodulin peptide derived from IGFBP-6; also called immodulin peptide-6) [imm6]', 'fluorescence counts', 587),
  ('Biotin-KKGFYKKKQCRPSKGRKRGFCW (cysteine pairing not given here; also: labelled with Streptavidin-Alexa 488 conjugate (SA488), Synthetic immodulin peptide derived from IGFBP-3; also called immodulin peptide-3) [imm3]', 'fluorescence counts', 6570),
  ('Biotin-RNGNFHPKQCHPALDGQRGKCW (cysteine pairing not given here; also: labelled with Streptavidin-Alexa 488 conjugate (SA488), Synthetic immodulin peptide derived from IGFBP-4) [imm4]', 'fluorescence counts', 27);
